EXPERIMENT_NOTES: acute toxicity (LD50)
Design: species or system white mice
CONDITION_DESCRIPTION: mouse, in vivo; intravenous; read-out: single LD50
EXPERIMENTAL_ENDPOINT: LD50 (mg/kg)
Entry rule: numbers only, all in mg/kg.

Check the records and state LD50 for "OCCN(CCO)c1nc(N2CCCCC2)c2nc(N(CCO)CCO)nc(N3CCCCC3)c2n1" 150
